Target: T1, human IL-33 (R&D Systems, #3625-IL-010/CF) (human, UniProt O95760 112-270)
T1 construct: Commercial recombinant protein; also called hIL-33; interleukin-33
T1 sequence (looked up): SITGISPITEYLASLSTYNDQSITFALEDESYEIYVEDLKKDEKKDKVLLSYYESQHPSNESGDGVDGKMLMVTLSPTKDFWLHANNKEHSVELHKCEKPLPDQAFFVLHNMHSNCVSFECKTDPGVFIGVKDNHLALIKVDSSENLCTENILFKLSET
Experiment: BLI; hIL-33 pre-mixed with mAb-2 Isotype control 2
measured-attribute: mAb-1 Binding to the Pre-complex of mAb-2 & hIL-33 (nm)
Report as a plain number; the unit nm is understood.

Enquiry: Please give measured mAb-1 Binding to the Pre-complex of mAb-2 & hIL-33 of the following entry: H4H9670P (antibody, V domains shown, Human IgG4 Fc (H4H)) VH: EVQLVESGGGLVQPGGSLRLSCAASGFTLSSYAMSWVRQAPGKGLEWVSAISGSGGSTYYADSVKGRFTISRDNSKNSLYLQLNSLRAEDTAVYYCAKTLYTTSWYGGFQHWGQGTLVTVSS VL: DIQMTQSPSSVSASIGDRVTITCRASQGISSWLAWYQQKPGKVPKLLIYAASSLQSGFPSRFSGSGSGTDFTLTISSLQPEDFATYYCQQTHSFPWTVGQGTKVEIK
Return: 0.12

Enquiry: State its mAb-1 Binding to the Pre-complex of mAb-2 & hIL-33 for this binder: H4H9672P (antibody, human IgG4, V domains shown, Human IgG4 Fc (H4H)) VH: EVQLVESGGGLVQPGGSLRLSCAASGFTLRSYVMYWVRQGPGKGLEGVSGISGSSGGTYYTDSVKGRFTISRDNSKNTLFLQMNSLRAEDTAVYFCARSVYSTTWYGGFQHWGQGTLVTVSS VL: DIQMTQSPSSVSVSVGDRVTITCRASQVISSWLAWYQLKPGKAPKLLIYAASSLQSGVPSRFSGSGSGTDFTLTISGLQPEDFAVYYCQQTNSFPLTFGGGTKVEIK
Return: 0.08
